TESTED_TARGET: human PD-1 expressed on cells (human, UniProt Q15116 25-288)
Sequence (Q15116 25-288): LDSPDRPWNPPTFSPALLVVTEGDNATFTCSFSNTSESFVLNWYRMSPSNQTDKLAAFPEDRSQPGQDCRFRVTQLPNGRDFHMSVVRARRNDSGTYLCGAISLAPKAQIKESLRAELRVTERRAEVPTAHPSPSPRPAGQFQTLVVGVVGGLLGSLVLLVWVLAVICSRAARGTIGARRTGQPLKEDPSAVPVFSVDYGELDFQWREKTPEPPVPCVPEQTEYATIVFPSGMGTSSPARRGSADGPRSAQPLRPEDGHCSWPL
ASSAY_SUMMARY: cell-based or functional assay
REPORTED_PROPERTY: Fold induction (fold)
Record the value in fold, omitting the unit from your answer.

>  <BINDER>
38B2 (antibody, V domains shown, 24H9 derivative, IgG; also called 780_54; hPD1 Ab (38B2)) VH: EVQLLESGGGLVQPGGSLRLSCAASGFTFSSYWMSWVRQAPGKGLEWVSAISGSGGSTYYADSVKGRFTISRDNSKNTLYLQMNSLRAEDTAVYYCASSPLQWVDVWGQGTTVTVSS VL: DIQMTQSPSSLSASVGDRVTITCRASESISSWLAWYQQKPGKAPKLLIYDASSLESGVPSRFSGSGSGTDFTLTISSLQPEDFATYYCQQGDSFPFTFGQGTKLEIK

>  <REPORTED_PROPERTY>
Fold induction

>  <RECORDED_RESULT>
6.54

$$$$
>  <BINDER>
33C4 (antibody, V domains shown, also called 780_39) VH: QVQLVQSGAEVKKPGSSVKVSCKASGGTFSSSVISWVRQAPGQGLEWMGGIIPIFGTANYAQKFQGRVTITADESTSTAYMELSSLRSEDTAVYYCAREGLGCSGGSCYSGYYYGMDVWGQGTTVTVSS VL: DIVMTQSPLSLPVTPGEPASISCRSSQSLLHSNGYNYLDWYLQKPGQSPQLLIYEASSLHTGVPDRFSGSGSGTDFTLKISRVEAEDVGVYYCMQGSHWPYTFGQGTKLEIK

>  <REPORTED_PROPERTY>
Fold induction

>  <RECORDED_RESULT>
6.24

$$$$
>  <BINDER>
24H9 (antibody, human IgG1, V domains shown) VH: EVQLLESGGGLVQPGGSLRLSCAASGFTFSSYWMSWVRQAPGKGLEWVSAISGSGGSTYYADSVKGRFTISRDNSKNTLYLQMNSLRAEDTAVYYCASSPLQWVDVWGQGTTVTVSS VL: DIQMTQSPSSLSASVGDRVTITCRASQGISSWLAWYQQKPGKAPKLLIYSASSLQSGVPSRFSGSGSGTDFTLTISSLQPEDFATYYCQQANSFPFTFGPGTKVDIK

>  <REPORTED_PROPERTY>
Fold induction

>  <RECORDED_RESULT>
4.97

$$$$

Input: Would you kindly share the measured Fold induction for 38A6 (antibody, V domains shown, also called 780_46) VH: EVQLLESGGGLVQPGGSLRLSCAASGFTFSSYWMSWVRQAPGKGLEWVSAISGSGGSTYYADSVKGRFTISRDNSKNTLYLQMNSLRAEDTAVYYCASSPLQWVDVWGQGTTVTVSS VL: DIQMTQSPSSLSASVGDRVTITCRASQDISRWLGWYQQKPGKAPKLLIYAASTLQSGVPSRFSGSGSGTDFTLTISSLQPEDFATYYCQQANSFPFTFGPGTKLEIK ?
Output: 5.66

Where do the numbers come from? From patent US20230416363A1.
